# Tested on: HCC-2998 colon
# protocol: NCI tumour cell line growth inhibition, 48 h
Recorded TGI values for a group of molecules are listed next.
Please state the figure in µM; there is no need to write the unit.

Field: example entries. Status: answers known.
In [3]: df
Out[3]:
                                   molecule  reported_property  measured_number
0  OC1CSSC1Cn1cnc2c(Nc3ccc(OCc4cccc(F)c4)c(Cl)c3)ncnc21 (stereo not given)                TGI             3.49
1  C=CC(=O)Nc1cc(Nc2ncc(C(=O)OC(C)C)c(-c3cn(C)c4ccccc34)n2)c(OC)cc1N(C)CCN(C)C                TGI             7.75
2  CCCCCCCCCCCCCCNC(=O)CCC(NC(=O)c1ccc(N(C)Cc2cnc3nc(N)nc(N)c3n2)cc1)C(=O)NCCCCCCCCCCCCCC (stereo not given)                TGI             19.8
3  O=C(Nc1ccc(F)cc1)Nc1ccc(Cl)c([N+](=O)[O-])c1                TGI             14.3
4  CC[C@@H]1CC[C@@H]2[C@H](CC[C@]3(C)[C@@H](OC(C)=O)CC[C@@H]23)[C@H]1COC(C)=O                TGI             33.4

Note to self: TGI of O=C(CCNC12CC3CC(CC(C3)C1)C2)c1ccccc1 with HCC-2998 colon was 26.5

Note to self: TGI of O=C1/C(=C/c2ccc(O)c(O)c2)CCC/C1=C\c1ccc(O)c(O)c1 with HCC-2998 colon was 11.5
